# experimentalDetails: splicing luciferase reporter signal modulators, primary screen, spliceosome inhibition project, cell-based, HEK293, splice +/- reporter (AID 1101);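 note: HEK293 cells carrying a splicing-competent luciferase reporter gene; test concentration not given here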
# assayConditions: luminescence, 24 h, higher = more signal, called active from +8 up or from −8 down
Calls of active or inactive are those of the source.
testReadout: z-score

>>> value("CN1C(=O)C2C=CC(C(O)C3CC=CCC3)N(NC(=O)OC(C)(C)C)C2C1=O (stereo not given)")
"1.61 (inactive)"
>>> value("COCCCN1C(=O)[C@@]2(Cc3ccccc31)c1ccccc1C(=O)N(Cc1ccccc1C(F)(F)F)[C@H]2c1ccc(CO)cc1")
"0.498 (inactive)"
>>> value("COCCOC(=O)N1C(=O)[C@@]2(c3cc(C#Cc4ccc(OC)cc4)ccc31)[C@H](c1ccc(O)cc1)N1[C@H](c3ccccc3)[C@H](c3ccccc3)OC(=O)[C@H]1[C@@H]2C(=O)NC[C@H](O)c1ccccc1")
"-1.68 (inactive)"
>>> value("CCOC(=O)C1=CCC(c2ccccc2)N(S(=O)(=O)CC[Si](C)(C)C)C1 (stereo not given)")
"0.191 (inactive)"
>>> value("O=C1c2ccccc2[C@@]2(Cc3ccccc3N(CC(F)(F)F)C2=O)[C@H](c2ccc(CO)cc2)N1Cc1ccccc1Cl")
"-0.311 (inactive)"
>>> value("CCCC=C(CCC)[C@@H](NS(=O)(=O)c1cccs1)c1ccc(C(=O)OC)cc1")
"3.75 (inactive)"
>>> value("[N-]=[N+]=NCc1ccccc1[C@@H]1OC(c2ccc(OCCCO)cc2)=N[C@]1(CCS(=O)(=O)c1ccccc1)C(=O)NCCN1CCOCC1")
"-0.406 (inactive)"
>>> value("CC(C)OC(=O)C=C1C[C@@H](c2ccccc2C(F)(F)F)O[C@@H](c2ccccc2C(F)(F)F)O1")
"-0.723 (inactive)"
>>> value("C=CCN(Cc1ccccc1)C(=O)C(c1cccs1)N(CCOCCO)C(=O)/C=C\\C(=O)O (stereo not given)")
"-1.62 (inactive)"
>>> value("Cc1ccc(S[C@]2(C(=O)NCC(C)C)CC(=O)N(Cc3cc(C(F)(F)F)cc(C(F)(F)F)c3)[C@@H]2c2ccc(CO)cc2I)cc1")
"-0.0957 (inactive)"
>>> value("COc1ccc([Si](C)(C)[C@@H]2[C@@H](CC(=O)N3Cc4ccccc4C[C@H]3CO)O[C@]3(C(=O)N(C)c4c(Br)cc(C)cc43)[C@H]2C)cc1")
"-2.12 (inactive)"
>>> value("CCOC(=O)C[C@H]1[C@H](OC(=O)c2cc3ccccc3oc2=O)[C@@H](NC(=O)Cc2ccc(OC)cc2)c2cc(OCCCO)ccc2N1C(=O)c1ccccc1")
"-0.854 (inactive)"
>>> value("CC(C)(C)OC(=O)CC[C@@]12N=C(c3ccc(OCCCO)cc3)O[C@@H]1c1ccccc1N(CCS(=O)(=O)c1ccccc1)C2=O")
"-1.14 (inactive)"
>>> value("COCC(=C=CC[C@H](O)c1ccccc1OCCO)C[C@H](O)c1cc(Cl)cc(Cl)c1O")
"-0.705 (inactive)"
>>> value("CCOC(=O)C[C@H]1[C@H](OC(=O)Cc2ccc3c(c2)OCO3)[C@@H](NC(=O)c2ccc(-c3ccccc3)cc2)c2cc(OCCCO)ccc2N1C(=O)Cc1ccc(OC)cc1")
"-2.01 (inactive)"

Numbers sourced from PubChem BioAssay.
